Assay: In vivo pharmacokinetic study of oral HCPT in rats with or without verapamil pre-treatment
Settings: male, Sprague-Dawley, rat, plasma, 50 mg/kg, HCPT 50 mg/kg intragastric/oral, pre-treatment of verapamil 10 mg/kg/day for 7 days, n = 6, Mean ± S.D.
measured property: half-life (h)
Write it as a number; the unit h goes unstated.

Lookup: Using the record for CC[C@@]1(O)C(=O)OCc2c1cc1n(c2=O)Cc2cc3cc(O)ccc3nc2-1 [HCPT, Hydroxycamptothecin] , report its half-life.
Found: 23

----------
Test: Metabolic stability of HCPT in rat liver microsomes with or without verapamil
Type: in vitro ADME
Conditions: pH 7.4, without verapamil
measured property: half-life at 1 µM (min)
Kindly answer with a numeric value in min, unit omitted.

Lookup: What value of measured half-life at 1 µM is listed for CC[C@@]1(O)C(=O)OCc2c1cc1n(c2=O)Cc2cc3cc(O)ccc3nc2-1 [HCPT, Hydroxycamptothecin] ?
Found: 35.1
